# Test system: SK-HEP-1
# PROTOCOL DETAILS: SRB cell proliferation inhibition assay
# Type: cell-based
# CONDITION LABEL: SK-HEP1, human liver cancer cells, 72 h
The entries below come with measured IC50 values attached.

MOLECULE: C#Cc1cn([C@@H]2S[C@H](CO)[C@@H](O)[C@H]2O)c2ncnc(N)c12
SUBJECT OF TEST: SK-HEP-1
CENSOR SYMBOL: =
IC50 / µM: 0.05
//
MOLECULE: COc1cc([C@@H]2c3cc4c(cc3[C@@H](O[C@@H]3O[C@@H]5CO[C@@H](C)O[C@H]5[C@H](O)[C@H]3O)[C@H]3COC(=O)[C@H]23)OCO4)cc(OC)c1O [Etoposide, reference compound]
SUBJECT OF TEST: SK-HEP-1
CENSOR SYMBOL: =
IC50 / µM: 0.91
//
MOLECULE: Nc1ccn([C@@H]2O[C@H](CO)[C@@H](O)C2(F)F)c(=O)n1 [Gemcitabine, reference compound]
SUBJECT OF TEST: SK-HEP-1
CENSOR SYMBOL: =
IC50 / µM: 0.2
//
MOLECULE: Nc1ncnc2c1c(C#CC1CC1)cn2[C@@H]1S[C@H](CO)[C@@H](O)[C@H]1O
SUBJECT OF TEST: SK-HEP-1
CENSOR SYMBOL: =
IC50 / µM: 8.31
//
MOLECULE: Nc1ncnc2c1c(-c1ccccc1)cn2[C@@H]1S[C@H](CO)[C@@H](O)[C@H]1O
SUBJECT OF TEST: SK-HEP-1
CENSOR SYMBOL: =
IC50 / µM: 7.81
//
MOLECULE: Nc1ncnc2c1c(-c1ccc(N3CCS(=O)(=O)CC3)cc1)cn2C1SC(CO)C(O)C1O (stereo not drawn)
SUBJECT OF TEST: SK-HEP-1
CENSOR SYMBOL: >
IC50 / µM: 50
//
MOLECULE: CC(C)(C)C#Cc1cn([C@@H]2S[C@H](CO)[C@@H](O)[C@H]2O)c2ncnc(N)c12
SUBJECT OF TEST: SK-HEP-1
CENSOR SYMBOL: >
IC50 / µM: 50
//
MOLECULE: CCC#Cc1cn([C@@H]2S[C@H](CO)[C@@H](O)[C@H]2O)c2ncnc(N)c12
SUBJECT OF TEST: SK-HEP-1
CENSOR SYMBOL: >
IC50 / µM: 50
//
MOLECULE: Nc1ncnc2c1c(-c1ccco1)cn2[C@@H]1S[C@H](CO)[C@@H](O)[C@H]1O
SUBJECT OF TEST: SK-HEP-1
CENSOR SYMBOL: =
IC50 / µM: 3.38
